experimental target: T1, dimeric human PRLR (hPRLR.mFc; SEQ ID NO:402) (Homo sapiens, UniProt P16471)
T1 construct: dimeric (hPRLR.mFc)
T1 sequence (P16471 with tags, fused parts or gaps): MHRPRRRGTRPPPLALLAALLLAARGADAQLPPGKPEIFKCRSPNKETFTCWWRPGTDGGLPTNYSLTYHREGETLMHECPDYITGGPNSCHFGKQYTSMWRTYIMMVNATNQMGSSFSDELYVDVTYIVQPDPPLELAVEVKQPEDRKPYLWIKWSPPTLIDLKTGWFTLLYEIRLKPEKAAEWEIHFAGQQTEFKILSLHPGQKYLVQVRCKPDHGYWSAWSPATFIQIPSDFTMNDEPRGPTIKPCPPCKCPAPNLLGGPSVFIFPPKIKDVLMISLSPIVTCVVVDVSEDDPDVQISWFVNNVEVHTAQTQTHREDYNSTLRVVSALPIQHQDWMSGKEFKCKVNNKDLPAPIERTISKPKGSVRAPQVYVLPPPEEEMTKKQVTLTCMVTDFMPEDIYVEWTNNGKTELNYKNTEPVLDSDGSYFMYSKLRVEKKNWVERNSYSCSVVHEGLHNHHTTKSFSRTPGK
assay details: Surface plasmon resonance (Biacore T200), antibody-capture format
Assay type: binding
test settings: 37° C., analyte hPRLR.mFc
Experimental: Antibodies, expressed as human IgG1 Fc (i.e., “H1H” designations), were captured onto an anti-human Fc sensor surface (mAb-capture format), and soluble monomeric (hPRLR.mmh; SEQ ID NO:401, or Macaca fascicularis (mf) PRLR.mmh; SEQ ID NO:403) or dimeric (hPRLR.mFc; SEQ ID NO:402) PRLR protein was injected over the sensor surface. Measurements were conducted on a T200 Biacore instrument. […]
Can you tell me ka for the items I'm about to list?
Unit M/s implied. Number only.

Notebook: H1H6953N: anti-PRLR antibody, human IgG1 Fc form of H1M6953N of Table 1; HCVR/LCVR SEQ ID NOs 274/282 (antibody, V domains shown) VH: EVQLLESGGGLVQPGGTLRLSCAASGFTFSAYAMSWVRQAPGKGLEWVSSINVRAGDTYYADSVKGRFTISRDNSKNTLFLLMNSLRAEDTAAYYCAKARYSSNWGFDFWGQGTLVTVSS VL: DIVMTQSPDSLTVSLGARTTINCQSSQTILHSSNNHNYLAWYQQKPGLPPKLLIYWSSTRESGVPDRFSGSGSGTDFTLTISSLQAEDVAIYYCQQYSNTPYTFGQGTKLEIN , ka read as 1.47e+06

Notebook: H1H6975N: anti-PRLR antibody, human IgG1 Fc form of H2M6975N of Table 1; HCVR/LCVR SEQ ID NOs 370/378 (antibody, V domains shown, human IgG1 Fc) VH: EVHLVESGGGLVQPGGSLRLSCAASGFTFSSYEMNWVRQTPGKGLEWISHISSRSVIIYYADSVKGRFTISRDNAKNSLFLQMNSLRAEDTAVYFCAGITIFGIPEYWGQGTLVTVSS VL: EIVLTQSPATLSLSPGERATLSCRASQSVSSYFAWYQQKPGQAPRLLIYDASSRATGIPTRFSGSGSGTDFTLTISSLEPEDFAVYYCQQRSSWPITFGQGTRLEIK , ka read as 386000

Notebook: H1H6976N: anti-PRLR antibody, human IgG1 Fc form of H2M6976N of Table 1; HCVR/LCVR SEQ ID NOs 386/394 (antibody, V domains shown, human IgG1 Fc) VH: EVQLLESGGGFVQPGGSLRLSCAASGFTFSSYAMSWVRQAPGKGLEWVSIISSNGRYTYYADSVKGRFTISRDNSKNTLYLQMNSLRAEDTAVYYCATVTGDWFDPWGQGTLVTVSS VL: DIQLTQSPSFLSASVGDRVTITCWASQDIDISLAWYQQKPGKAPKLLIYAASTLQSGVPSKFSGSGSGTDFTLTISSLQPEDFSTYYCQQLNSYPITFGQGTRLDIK , ka read as 1.37e+06

Notebook: H1H6966N: anti-PRLR antibody, human IgG1 Fc form of H2M6966N of Table 1; HCVR/LCVR SEQ ID NOs 338/346 (antibody, V domains shown, human IgG1 Fc) VH: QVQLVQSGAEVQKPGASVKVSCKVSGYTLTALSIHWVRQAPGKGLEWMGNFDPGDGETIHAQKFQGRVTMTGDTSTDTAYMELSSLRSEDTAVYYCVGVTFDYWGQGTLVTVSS VL: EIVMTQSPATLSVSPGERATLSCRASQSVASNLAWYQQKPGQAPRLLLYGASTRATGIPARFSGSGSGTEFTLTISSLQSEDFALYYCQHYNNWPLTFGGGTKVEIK , ka read as 1.88e+06
